- Tested on: Candida albicans SNY425 biofilm
- procedure_text: biofilm OD600 relative to DMSO control (fraction of DMSO control); higher = more biofilm (less inhibition)
- recorded_conditions: 12.5 µM; assay detail: sustained inhibition (MBIC series), 384-well, compound during adherence and 24 h growth
Structures can show the parent of a compound that is named as a salt.
Record Met whenever biofilm OD600 is at 1 or higher; record Not met when lower.

Record excerpt, results attached:
Exercise: Is reported biofilm OD600 greater than or equal to 1 here: Fc1ccc([C@@H]2CCNC[C@H]2COc2ccc3c(c2)OCO3)cc1 [paroxetine hydrochloride]
Key: Not met

Exercise: API: above_or_equal(metric=biofilm OD600, cutoff=1) for item "Cc1cccc(Nc2ccccc2C(=O)O)c1C"
Key: Not met

Exercise: For this compound, is measured biofilm OD600 1 or higher? CC(C)N1CCN(c2ccc(OCC3COC(Cn4cncn4)(c4ccc(Cl)cc4Cl)O3)cc2)CC1 (stereo not given)
Key: Not met

Exercise: Has CCCCCCOC(=O)NC(=N)c1ccc(NCc2nc3cc(C(=O)N(CCC(=O)OCC)c4ccccn4)ccc3n2C)cc1 [dabigatran etexilate mesylate] a recorded biofilm OD600 greater than or equal to 1?
Key: Not met

Exercise: Is it the case that "Cc1c(OCC(F)(F)F)ccnc1C[S@@+]([O-])c1nc2ccccc2[nH]1" has biofilm OD600 reaching or exceeding 1?
Key: Not met

Exercise: API: above_or_equal(metric=biofilm OD600, cutoff=1) for item Clc1ccc(C(Cn2ccnc2)OCc2ccsc2Cl)c(Cl)c1 (stereo not given)
Key: Not met

Exercise: Given the entry COCCCOc1ccnc(C[S+]([O-])c2nc3ccccc3[nH]2)c1C (stereo not given) [rabeprazole sodium] , answer whether its biofilm OD600 meets or surpasses 1.
Key: Met

Exercise: Determine whether measured biofilm OD600 meets or exceeds 1 for "CCCCCCCCCCCCCCCCOP(=O)([O-])OCC[N+](C)(C)C"
Key: Met

Exercise: Reported biofilm OD600 reaches at least 1 for "Oc1c(Cl)cc(Cl)c2cccnc12" ?
Key: Not met

Here's the next entry for you.
Exercise: Given the entry "Nc1nc(=O)[nH]cc1F" , answer whether its biofilm OD600 meets or surpasses 1.
Key: Not met
